Where do these numbers come from? They come from patent US20210261636A1.

Tested on: CD4+ T cells
Method Summary: Exogenous autologous healthy donor restimulation assay, TNFα and IFNγ production by CD4+ T cells
Assay type: cell-based, human
Test Settings: maximum CD4+ T-cell response (TNFα and IFNγ), donor independent; peptide pool 10 μg/mL, healthy donors
Returns: string. Value is y if measured Fold change (CD4+) vs. DMSO is below 10, and n if it is greater than or equal to it.

1. PVILFKGKVRPIP [AS67, alternative splicing, MTMR14]	y

Task: Problem: For the sequence PQEEVPFRSITTELFPSMC [FUS27, gene fusion TBCEL-> TECTA] , is Fold change (CD4+) vs. DMSO under 10?
Result: y

Task: Problem: For the sequence QLKKMVSKVRLRRARLPGRAHRSLPRPVESVPAQPSKLPRRAGSPGAVLSDLLRTPPRGACRLVRESPYGSWEGGGRRQSTKAWSGGYLTPAAHPPSSLPLSLELSVGQCSFSFVFINTNKGSYLVVDLRQSSTPVPI [AS11] , is Fold change (CD4+) vs. DMSO under 10?
Result: n

Task: Problem: For the sequence CKVCQNCKNPKMARAS [AS23, alternative splicing, KMT2C] , is Fold change (CD4+) vs. DMSO under 10?
Result: n

Task: Problem: For the sequence DVAVICSGVPVADVS [FUS5, gene fusion CD5L-> FCRL1] , is Fold change (CD4+) vs. DMSO under 10?
Result: y

----------
Test system: CD4+ T cells
Method Summary: Exogenous autologous healthy donor restimulation assay, TNFα and IFNγ production by CD4+ T cells
Type: cell-based, human
Parameters: unit not given here
Test Settings: maximum CD4+ T-cell response, donor independent; peptide pool 10 μg/mL, healthy donors
Returns: string. Value is met if measured Frequency (TNFα+ IFNγ+ CD4 T cells) is below 0.02, and not met if it is greater than or equal to it.

Study these solved cases before continuing.
1. IENEGGQVRSRPAPS [AS56, alternative splicing, ADGRE5]	met
2. ARHLLTLGTCGSTWP [FUS26, gene fusion P2RY6-> ARHGEF17]	not met
3. EGTPFEDGKSYSLCFL [AS78, alternative splicing, UBE2B]	not met
4. QLSVVTRDDYNSSELK [AS87, alternative splicing, BMP6]	met
5. QRDRDSIKVGLKIYRLRNGLKGL [AS76, alternative splicing, TLE4]	not met

Task: Problem: For the substance TVPASQKLSCSLDPKHLRQFHL [AS30, alternative splicing, BLNK] , is Frequency (TNFα+ IFNγ+ CD4 T cells) under 0.02?
Result: met

Task: Problem: For the substance VYYLYKNVAYKGSDID [AS86, alternative splicing, ATP10B] , is Frequency (TNFα+ IFNγ+ CD4 T cells) under 0.02?
Result: met

Task: Problem: For the substance PVILFKGKVRPIP [AS67, alternative splicing, MTMR14] , is Frequency (TNFα+ IFNγ+ CD4 T cells) under 0.02?
Result: not met

Task: Problem: For the substance DMEVFLKEASTNQHNTLIHLTLTFST [AS73, alternative splicing, SMC5] , is Frequency (TNFα+ IFNγ+ CD4 T cells) under 0.02?
Result: not met

Task: Problem: For the substance ISKRLKSRRRSGWQLNRAGNRGLSPGLGLFPRGCCRWGGAYTRLPSANQT [FUS20, gene fusion PTGES2-> SLC25A25-AS1] , is Frequency (TNFα+ IFNγ+ CD4 T cells) under 0.02?
Result: not met

Task: Problem: For the substance SLLSLFPGKTVEITCLQHQKC [AS3, alternative splicing, BBS9] , is Frequency (TNFα+ IFNγ+ CD4 T cells) under 0.02?
Result: not met

Task: Problem: For the substance IEKSISARITEQ [FUS36, gene fusion TNFRSF17-> SNX29] , is Frequency (TNFα+ IFNγ+ CD4 T cells) under 0.02?
Result: met

----------
System: CD4+ T cells
Method Summary: Exogenous autologous healthy donor restimulation assay, TNFα and IFNγ production by CD4+ T cells
Type: cell-based, human
Design: unit not given here
Test Settings: maximum CD4+ T-cell response, donor independent; peptide pool 10 μg/mL, healthy donors
Quick list: Frequency (TNFα+ IFNγ+ CD4 T cells) per entry.
Reply: number alone, nothing else.

1. TSTSPKFPVFIFRLVCWVRTELVLR [AS47, alternative splicing, NRG3]	0.011
2. DVAVICSGVPVADVS [FUS5, gene fusion CD5L-> FCRL1]	0.021
3. ARWFTREQGSEN [FUS12, gene fusion NUDT12-> LINC02115]	0.027
4. SATTRSITGQDILSLEKERR [AS17, alternative splicing, DCC]	0.028
5. NRVTALTQN [FUS35, gene fusion TMED3-> KIAA1024]	0.019

Task: Give me measured Frequency (TNFα+ IFNγ+ CD4 T cells), please, for this sequence: NAVRSYYETNGGMSFLRITP [FUS19, gene fusion CADPS2-> RNF148]
Result: 0.009

Task: Give me measured Frequency (TNFα+ IFNγ+ CD4 T cells), please, for this sequence: ACGACGAGFFIKQKCIEQRESRSLS [FUS22, gene fusion IGLL5-> COMMD3-BMI1, BMI1]
Result: 0.006

Task: Give me measured Frequency (TNFα+ IFNγ+ CD4 T cells), please, for this sequence: NASLHEVKDFFVPFPLPLLHLTSLKRNKLFN [AS110, alternative splicing, CCDC88A]
Result: 0.21

Task: Give me measured Frequency (TNFα+ IFNγ+ CD4 T cells), please, for this sequence: QILQQALKIAFLKVVVPLKLHPYSFCH [AS132, alternative splicing, USP25]
Result: 0.17
